Molecular target: T1, full-length beta-Catenin (Uniprot ID P35222) (Homo sapiens (Human), UniProt P35222 2-781)
T1 construct: The assay text says 'full-length'; also called B-Catenin; bCat
T1 sequence: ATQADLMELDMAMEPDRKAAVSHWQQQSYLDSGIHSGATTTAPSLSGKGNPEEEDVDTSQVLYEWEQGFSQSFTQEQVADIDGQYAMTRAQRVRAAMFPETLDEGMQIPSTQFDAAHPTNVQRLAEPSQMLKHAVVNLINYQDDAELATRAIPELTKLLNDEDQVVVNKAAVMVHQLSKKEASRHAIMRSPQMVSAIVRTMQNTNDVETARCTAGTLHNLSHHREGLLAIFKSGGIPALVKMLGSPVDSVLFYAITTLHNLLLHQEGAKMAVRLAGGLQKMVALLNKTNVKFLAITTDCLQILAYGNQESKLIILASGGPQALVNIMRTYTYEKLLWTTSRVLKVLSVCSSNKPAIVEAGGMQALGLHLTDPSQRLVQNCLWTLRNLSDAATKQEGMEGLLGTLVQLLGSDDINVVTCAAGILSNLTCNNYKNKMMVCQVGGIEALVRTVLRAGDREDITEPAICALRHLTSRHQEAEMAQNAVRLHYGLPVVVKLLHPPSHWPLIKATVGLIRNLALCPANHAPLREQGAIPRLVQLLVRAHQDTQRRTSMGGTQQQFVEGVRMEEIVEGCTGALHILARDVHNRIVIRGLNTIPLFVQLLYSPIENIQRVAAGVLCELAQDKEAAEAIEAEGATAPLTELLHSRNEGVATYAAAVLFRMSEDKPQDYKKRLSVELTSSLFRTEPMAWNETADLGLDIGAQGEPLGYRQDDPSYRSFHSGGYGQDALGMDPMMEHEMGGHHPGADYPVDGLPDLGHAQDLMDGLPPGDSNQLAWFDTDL
Assay: AlphaScreen competition vs biotin-TCF4(10-53) on full-length beta-catenin
Starred links: 1 amine or outer side, 2 acyl side, 3 side chain; linkers in the order of their positions; H or OH if unused. Positions of bridges follow the written chain, without caps; N, C: chain ends. Non-standard residues stand in square brackets, D forms with d. Primed or numbered codes have the meaning given here. RgN = (R)-3-(((allyloxy)carbonyl)(methyl)amino)-2-amino-2-methylpropanoic acid (stapling residue), C=CCOC(=O)N(C)C[C@@](C)(N[*:1])C(=O)[*:2]; PyrS(3) = (S)-1-((allyloxy)carbonyl)-3-aminopyrrolidine-3-carboxylic acid, stapling residue, C=CCOC(=O)N1CC[C@@](N[*:1])(C(=O)[*:2])C1; PyrS = (S)-1-((allyloxy)carbonyl)-3-aminopyrrolidine-3-carboxylic acid, C=CCOC(=O)N1CC[C@@](N[*:1])(C(=O)[*:2])C1; R8 = C=CCCCCCC[C@@](C)(N)C(=O)O; Aad = N[C@@H](CCCC(=O)O)C(=O)O; S8 = C=CCCCCCC[C@](C)(N)C(=O)O; hLeu = CC(C)CC[C@H](N)C(=O)O
Provide the reported EC50 of each item.

EC50 reported for this binder Ac-FDA[R8]D[Aad]AAFV[PyrS(3)]FWQ-NH2 (staple 4-11; also: earlier-eluting HPLC isomer, E/Z not given here, Stapled peptide composition) [I-5] : ≥ 10 µM

EC50 reported for this binder Ac-FDA[R8]D[hLeu]AAFV[PyrS]FWQ-NH2 (staple 4-11; not fully specified; printed as Ac-Phe-Asp-Ala-R8-Asp-hLeu-Ala-Ala-Phe-Val-PyrS-Phe-Trp-Gln-NH2, Stapled peptide composition) [I-18] : ≥ 10 µM

EC50 reported for this binder Ac-FDA[RgN]DDAAFV[S8]FWQ-NH2 (staple 4-11, Stapled peptide composition) [I-44] : ≥ 10 µM
